Biological target: T1, biotinylated human H202D GDF-15 variant (human, UniProt Q99988 197-308, biotinylated, sites not stated)
T1 construct: also called Human GDF-15 H202D
T1 chain: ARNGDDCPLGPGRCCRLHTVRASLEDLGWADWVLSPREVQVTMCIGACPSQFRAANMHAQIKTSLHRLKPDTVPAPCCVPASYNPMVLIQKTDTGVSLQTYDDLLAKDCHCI
Assay: HTRF binding assay, biotinylated antigen, titration of antibody
measurement.type: binding result

AB1170002 (antibody, V domains shown) VH: QVTLKESGPGILQPSQTLSLTCSFSGFSLSTYGMGVGWIRQPSGKGLEWLANIWWNDDKYYNSALKSRLTISKDTSNNQVFLKISSVDTADTVTYYCAQVGYDWFAYWGQGTLVTVSS VL: EIVLTQSPALMAASPGEKVTITCSVSSSISSSNLHWYQQKSETSPKPWIYGTSNLASGVPVRFSGSGSGTSYSLTISSMEAEDAATYYCQQCSSYPLTFGAGTKLELK :: binds
AB1170043 (antibody, V domains shown) VH: QVTLKESGPGILQSSQTLSLTCSFSGFSLITSGLGVSWIRQPSGKGLEWLAHIYWDDDKRYNPSLKSRLTISKDTSRNQVFLKITSVDTADTATYYCARGGYDGYYDYWGQGTTLTVSS VL: DVVMTQTPLSLPVSLGDQASISCRSSQSIVHSNGNTNLEWYLQKPGQSPKLLIYKVSNRLSGVPDRFSGSGSGTDFTLKISRVEAEDLGVYYCFQGSHVRTFGGGTKLEIK :: binds
AB1170040 (antibody, V domains shown) VH: DVKLVESGEGLVKPGGSLKLSCAASGFTFSSYAMSWVRQTPEKRLEWVAYISSGGDYIYYADTVKGRFTISRDNARNTLYLQMSSLKSEDTAMYYCTRALVDNAYFDYWGQGTTLTVSS VL: DIVLTQSPASLAVSLGQRATISCRASKSVSTSSYSYMHWYQQKPGQPPKLLIKYASYLEFGVPARFSGSGSGTDFTLNIHPVEEEDAATYYCQHSREFPWTFGGGTKLEIK :: binds
